Tested on: NCI-H1915
Method description: relative viability (nuclei count vs DMSO), 5 days (fraction); higher = more cells survive
Setup conditions: first compound 0.01 µM
Measured property: relative viability

>  <Compound>
O=c1cc(N2CCOCC2)oc2c(-c3cccc4c3sc3ccccc34)cccc12 + CC1(C)CCC(c2ccc(Cl)cc2)=C(CN2CCN(c3ccc(C(=O)NS(=O)(=O)c4ccc(N[C@H](CCN5CCOCC5)CSc5ccccc5)c(S(=O)(=O)C(F)(F)F)c4)cc3)CC2)C1 [Navitoclax] (partner 0.5 µM)

>  <relative viability>
0.792

$$$$
>  <Compound>
CCN(CC)CCCCNc1ncc2cc(-c3cc(OC)cc(OC)c3)c(NC(=O)NC(C)(C)C)nc2n1 + NC(=O)Nc1cc(-c2cccc(F)c2)sc1C(=O)N[C@H]1CCCNC1 [AZD7762] (partner 0.2 µM)

>  <relative viability>
0.655

$$$$

Let's switch to this compound now.
The compound listed as CCN(CC)CCCCNc1ncc2cc(-c3cc(OC)cc(OC)c3)c(NC(=O)NC(C)(C)C)nc2n1 + Cc1nc(NC(=O)N2CCC[C@H]2C(N)=O)sc1-c1ccnc(C(C)(C)C(F)(F)F)c1 [Alpelisib] (partner 2 µM) shows relative viability equal to 1.07
